procedureDetails: Pharmacokinetics in rat hepatic portal and tail veins after oral administration
Format: in vivo
conditionLabel: tail vein (systemic) plasma, oral, 0.5 mg/kg (footnote *), read-out: Tail vein Prodrug Cmax
valueKind: Cmax (ng/mL)
Only the number, expressed in ng/mL, is required.

Sample CC(C)[C@H](NC(=O)CCCC(=O)NC(=N)NC(=O)Cc1c(Cl)cccc1Cl)C(=O)O [Compound 1, Guanfacine (Glutaryl-(S)-Valine) Amide] ; Cmax observed: 8.26

----------
procedureDetails: Prodrug stability in freshly withdrawn porcine intestinal fluid
Type: in vitro ADME
conditionLabel: porcine intestinal fluid pH 6.8, 37° C., 3 hours; in % (unit assumed)
Give measured Prodrug remaining at 3 h for each item. Keep answers brief.
The response must contain the number and no unit.

Sample CC(C)[C@@H](N)C(=O)NCCC(=O)NC(=N)NC(=O)Cc1c(Cl)cccc1Cl [Compound 11, Guanfacine (β-Alanine-(R)-Valine) Amide] ; Prodrug remaining at 3 h observed: 91.3

Sample CC(C)[C@H](N)C(=O)NCCC(=O)NC(=N)NC(=O)Cc1c(Cl)cccc1Cl [Compound 2, Guanfacine (β-Alanine-(S)-Valine) Amide] ; Prodrug remaining at 3 h observed: 77.8

Sample CC(C)[C@H](NC(=O)CCCC(=O)NC(=N)NC(=O)Cc1c(Cl)cccc1Cl)C(=O)O [Compound 1, Guanfacine (Glutaryl-(S)-Valine) Amide] ; Prodrug remaining at 3 h observed: 100.6

Sample N=C(NC(=O)Cc1c(Cl)cccc1Cl)NC(=O)c1ccc(N)cc1 [Compound 52, Guanfacine PABA Amide] ; Prodrug remaining at 3 h observed: 87.77

Sample CNCC(=O)N[C@@H](COC(=O)NC(=N)NC(=O)Cc1c(Cl)cccc1Cl)C(=O)O ; Prodrug remaining at 3 h observed: 66.86

Sample C[C@@H](N)C(=O)N[C@@H](CCC(=O)NC(=N)NC(=O)Cc1c(Cl)cccc1Cl)C(=O)O ; Prodrug remaining at 3 h observed: 89.70
